target: KCNQ 2/3 channels (Homo sapiens, UniProt O43525+O43526); experiment: KCNQ 2/3 channel activation, thallium flux FLIPR assay (BTC-AM dye); settings: HEK293 cells stably expressing human KCNQ2 and KCNQ3 subunits; thallium-induced fluorescence, 4 min compound incubation
measuredEndpoint: EC50 (nM)
# unit: nM | format: bare number

Reference set, count: 2
>>> measuredvalue("CC1CN(c2nn(NC(=O)CC3CC4CCC3C4)c(=O)c3ccccc23)CC(C)O1 (racemic) [Example 90]")
141
>>> measuredvalue("CC(C)(C)OC(=O)NC(c1ccccc1)c1nn(NC(=O)CC2CC3CCC2C3)c(=O)c2ccccc12 (racemic)")
267

Record `O=C(Cc1cccc(F)c1)Nn1nc(N2CCOCC2)c2ccccc2c1=O` , field EC50: 5280

Record O=C(CC1CC2CCC1C2)Nn1nc(N2CCCC2)c2ccccc2c1=O (racemic) , field EC50: 62.8

---

Measured log10 EC50 accompanies every entry in the list below.
biological target: KCNQ 2/3 channels (Homo sapiens, UniProt O43525+O43526); test: KCNQ 2/3 channel activation, thallium flux FLIPR assay (BTC-AM dye); settings: HEK293 cells stably expressing human KCNQ2 and KCNQ3 subunits; thallium-induced fluorescence, 4 min compound incubation
Parameter value (number): base-10 log of EC50 in nM.

Reference set, count: 5
>>> measuredvalue("CN(Cc1ccccc1)c1nn(NC(=O)CC2CC3CCC2C3)c(=O)c2ccccc12 (racemic)")
1.63
>>> measuredvalue("Cc1ccsc1-c1nn(NC(=O)CC2CC3CCC2C3)c(=O)c2ccccc12 (racemic)")
2.06
>>> measuredvalue("O=C(Cc1ccc(Cl)cc1)Nn1nc(S(=O)(=O)c2ccccc2)c2ccccc2c1=O")
1.61
>>> measuredvalue("CC(C)(C)NC(=O)c1nn(NC(=O)CC2CC3CCC2C3)c(=O)c2ccccc12 (racemic)")
2.31
>>> measuredvalue("CC(C)(C)OC(=O)NCc1nn(NC(=O)Cc2ccc(Cl)cc2)c(=O)c2ccccc12")
2.99

Record `Cc1ccc(S(=O)(=O)NCc2nn(NC(=O)Cc3ccc(Cl)cc3)c(=O)c3ccccc23)cc1` , field log10 EC50: 3.98

Record O=C(CC1CC2CCC1C2)Nn1nc(Cc2ccncc2)c2ccccc2c1=O (racemic) , field log10 EC50: 3.43

Record O=C(CC1CC2CCC1C2)Nn1nc(N2CCCCC2)c2ccccc2c1=O (racemic) , field log10 EC50: 1.40

---

target: KCNQ 2/3 channels (Homo sapiens, UniProt O43525+O43526); assay: KCNQ 2/3 channel activation, thallium flux FLIPR assay (BTC-AM dye); conditions: HEK293 cells stably expressing human KCNQ2 and KCNQ3 subunits; thallium-induced fluorescence, 4 min compound incubation
pEC50: −log10 of the molar value.
Criterion: pEC50 meeting or surpassing 6. Met: 1. Not met: -1.

Query: # bool: pEC50 of O=C(Cc1ccc(F)cc1)Nn1nc(N2CCOCC2)c2ccccc2c1=O [Example 150] >= 6
Reply: -1

Query: # bool: pEC50 of CC(C)(CC(=O)Nn1nc(S(=O)(=O)c2ccccc2)c2ccccc2c1=O)c1ccccc1 [Example 194] >= 6
Reply: -1

---

target: KCNQ 2/3 channels (Homo sapiens, UniProt O43525+O43526); construct: expressed in transfected cells; host or cells: HEK293; assay: KCNQ 2/3 channel activation, thallium flux FLIPR assay (BTC-AM dye); assay type: cell-based; conditions: HEK293, maximum response relative to the response of 10 μM retigabine (set at 100%); HEK293 KCNQ2/KCNQ3 cells; read-out: % MAX
measuredEndpoint: Emax (%)
# unit: % | format: bare number

Reference set, count: 5
>>> measuredvalue("CC(C(=O)NCC(C)(C)C)c1nn(NC(=O)Cc2ccc(Cl)cc2)c(=O)c2ccccc12 (centres unmarked)")
21.8
>>> measuredvalue("O=C(Cc1cc(F)cc(F)c1)Nn1nc(Sc2ccc(Br)cc2)c2ccccc2c1=O")
120
>>> measuredvalue("O=C(Cc1ccc(Br)cc1)Nn1nc(N2CCOCC2)c2ccccc2c1=O")
110
>>> measuredvalue("O=C(Cc1cc(F)cc(F)c1)Nn1nc(SCc2ccccc2)c2ccccc2c1=O")
109
>>> measuredvalue("CCOC(=O)c1nn(NC(=O)Cc2ccc(Cl)cc2)c(=O)c2ccccc12")
64.8

Record `CN1CCN(c2nn(NC(=O)Cc3ccc(Cl)cc3)c(=O)c3ccccc23)CC1` , field Emax: 24.3

Record `CC(C)(CC(=O)Nn1nc(N2CCOCC2)c2ccccc2c1=O)c1ccccc1` , field Emax: 131

Record `O=C(Cc1ccc(Cl)cc1)Nn1nc(-c2ccc(Cl)nc2)c2ccccc2c1=O` , field Emax: 85.2

Record `O=C(Cc1ccc(Cl)cc1)Nn1nc(Sc2ccccc2)c2ccccc2c1=O` , field Emax: 120

Record `O=C(Cc1ccc(Oc2ccccc2)cc1)Nn1nc(N2CCOCC2)c2ccccc2c1=O` , field Emax: 30.8

Record `O=C(Cc1ccc2ccccc2c1)Nn1nc(N2CCOCC2)c2ccccc2c1=O` , field Emax: 15.6

Record `O=C(Cc1ccc(Cl)cc1)Nn1nc(S(=O)(=O)c2ccc(Br)cc2)c2ccccc2c1=O` , field Emax: 79.2

Record `O=C(Cc1cc(F)cc(F)c1)Nn1nc(-c2cccs2)c2ccccc2c1=O` , field Emax: 137

Record `CC(C)(CC(=O)Nn1nc(S(=O)(=O)c2ccccc2)c2ccccc2c1=O)c1ccccc1` , field Emax: 63.4

Record `CC(C)(C)OC(=O)NCc1nn(NC(=O)CC2CCCCC2)c(=O)c2ccccc12` , field Emax: 25.6

Record O=C(CC1CC2CCC1C2)Nn1nc(Cc2cc[n+]([O-])cc2)c2ccccc2c1=O (racemic) , field Emax: 53.4

Record `O=C(Cc1ccc(Cl)cc1)Nn1nc(Cc2ccc(Cl)[n+]([O-])c2)c2ccccc2c1=O` , field Emax: 11.7

---

target: KCNQ 2/3 channels (Homo sapiens, UniProt O43525+O43526); experiment: KCNQ 2/3 channel activation, thallium flux FLIPR assay (BTC-AM dye); settings: HEK293 cells stably expressing human KCNQ2 and KCNQ3 subunits; thallium-induced fluorescence, 4 min compound incubation
pEC50: −log10 of the molar value.
Assign a class from recorded pEC50; defined classes: bottom bin: < 6; middle bin: ≥ 6 and < 7; top bin: ≥ 7

These solved cases illustrate the format of a correct answer.
>>> classification("O=C(CC1CCCO1)Nn1nc(-c2ccnc(Cl)c2)c2ccccc2c1=O (stereo not drawn)")
"bottom bin"
>>> classification("O=C(CC1CC2CCC1C2)Nn1nc(-c2ccccn2)c2ccccc2c1=O (racemic)")
"middle bin"
>>> classification("O=C(Cc1ccc(Cl)cc1)Nn1nc(N2CCCC2)c2ccccc2c1=O")
"middle bin"
>>> classification("O=C(Cc1ccc(Cl)cc1)Nn1nc(-c2ccnc(Cl)c2)c2ccccc2c1=O")
"middle bin"
>>> classification("O=C(Cc1ccc(Cl)cc1)Nn1nc(Oc2ccccc2)c2ccccc2c1=O")
"middle bin"
>>> classification("O=C(Cc1ccc(Cl)cc1)Nn1nc(-c2ccc(Cl)nc2)c2ccccc2c1=O")
"middle bin"
>>> classification("Cc1ccsc1-c1nn(NC(=O)C[C@@H]2C[C@@H]3C=C[C@H]2C3)c(=O)c2ccccc12")
"middle bin"
>>> classification("O=C(Cc1ccc(Cl)cc1)Nn1nc(CNS(=O)(=O)C(F)(F)F)c2ccccc2c1=O")
"bottom bin"
>>> classification("O=C(CC(F)(F)F)Nn1nc(N2CCOCC2)c2ccccc2c1=O")
"bottom bin"
>>> classification("CCC1CN(c2nn(NC(=O)CC3CC4CCC3C4)c(=O)c3ccccc23)CCO1 (racemic)")
"top bin"

Query: Sort `O=C(CC12CC3CC(CC1C3)C2)Nn1nc(-c2ccc(C(F)(F)F)nc2)c2ccccc2c1=O` into one of the categories.
Reply: middle bin

Query: Sort O=C(CC1CC2CCC1C2)Nn1nc(N2CCOCC2)c2ccccc2c1=O (racemic) into one of the categories.
Reply: middle bin

Query: Sort `CS(=O)(=O)c1ccc(CC(=O)Nn2nc(Sc3ccccc3)c3ccccc3c2=O)cc1` into one of the categories.
Reply: bottom bin

Query: Sort CC1CN(c2nn(NC(=O)Cc3ccc(Cl)cc3)c(=O)c3ccccc23)CC(C)O1 (stereo not drawn) into one of the categories.
Reply: middle bin

Query: Sort O=C(CC1CC2CCC1C2)Nn1nc(S(=O)(=O)c2ccc(Br)cc2)c2ccccc2c1=O (racemic) into one of the categories.
Reply: top bin

Query: Sort `CN(Cc1ccccc1)c1nn(NC(=O)Cc2ccc(Cl)cc2)c(=O)c2ccccc12` into one of the categories.
Reply: middle bin

Query: Sort `O=C(Cc1ccc(Br)cc1)Nn1nc(N2CCOCC2)c2ccccc2c1=O` into one of the categories.
Reply: bottom bin

Query: Sort N#Cc1ccc(S(=O)(=O)c2nn(NC(=O)C[C@H]3C[C@@H]4CC[C@H]3C4)c(=O)c3ccccc23)cc1 (racemic) into one of the categories.
Reply: top bin

Query: Sort `O=C(Cc1cccc(Cl)c1)Nn1nc(N2CCOCC2)c2ccccc2c1=O` into one of the categories.
Reply: bottom bin

Query: Sort O=C(CC1CC2CCC1C2)Nn1nc(C(=O)c2ccccc2)c2ccccc2c1=O (racemic) into one of the categories.
Reply: top bin

Query: Sort O=C(CC1CC2CCC1C2)Nn1nc(-c2cccnc2)c2ccccc2c1=O (racemic) into one of the categories.
Reply: middle bin
